system: Leptosphaeria nodorum (LEPTNO); experiment: In vitro fungitoxicity of hydrazones with and without copper towards Leptosphaeria nodorum (Example 26); format: cell-based; settings: copper-plus medium (CuCl2 10 μM); test compound Concn. 0.05 μg/mL; 72 h at 25° C.
# key: entry, value: LEPTNO % Inhn. Plus Copper Observed
// units = %; emit number, no label

# count of solved cases: 8
Which measured LEPTNO % Inhn. Plus Copper Observed value corresponds to O=C(N/N=C/c1cccc(C(F)(F)F)c1O)c1ccccc1 [Example 296] ?
97.7

Which measured LEPTNO % Inhn. Plus Copper Observed value corresponds to O=C(N/N=C/c1ccc(Cl)c(Cl)c1O)c1ccc(F)cc1 [Example 357] ?
97.4

Which measured LEPTNO % Inhn. Plus Copper Observed value corresponds to O=C(N/N=C/c1c(Cl)ccc(Cl)c1O)c1ccc([N+](=O)[O-])cc1 [Example 375] ?
98.2

Which measured LEPTNO % Inhn. Plus Copper Observed value corresponds to C/C(=N\NC(=O)c1ccccc1C)c1cc(C(F)(F)F)ccc1O [Example 528] ?
97.7

Which measured LEPTNO % Inhn. Plus Copper Observed value corresponds to COc1cccc(/C(C)=N/NC(=O)c2cccc(C)c2)c1O [Example 301] ?
97.9

Which measured LEPTNO % Inhn. Plus Copper Observed value corresponds to COc1ccc(/C(C)=N/NC(=O)c2ccccc2C)c(O)c1OC [Example 552] ?
94.2

Which measured LEPTNO % Inhn. Plus Copper Observed value corresponds to C/C(=N\NC(=O)c1ccc(C)cc1)c1cc(Cl)ccc1O [Example 507] ?
97.0

Which measured LEPTNO % Inhn. Plus Copper Observed value corresponds to Cc1cccc(C(=O)N/N=C/c2cc(Cl)ccc2O)c1 [Example 419] ?
94.9

Next:
Which measured LEPTNO % Inhn. Plus Copper Observed value corresponds to COc1cc(O)c(/C(C)=N/NC(=O)c2ccc(C(F)(F)F)cc2)c(OC)c1 [Example 571] ?
84.7

* * *

# key: entry, value: melting point

# count of solved cases: 5
Which measured melting point value corresponds to O=C(N/N=C/c1cc(C(F)(F)F)cc(C(F)(F)F)c1O)c1ccccc1O ?
231 to 235 °C

Which measured melting point value corresponds to COc1ccc(/C(C)=N/NC(=O)c2ccc(Br)cc2)c(O)c1 ?
239 to 241 °C

Which measured melting point value corresponds to COc1ccc(/C(C)=N/NC(=O)c2cccc(Cl)c2)c(O)c1 ?
212 to 214 °C

Which measured melting point value corresponds to COc1cccc(C(=O)N/N=C/c2cc(Br)cc(Br)c2O)c1C ?
188 to 189 °C

Which measured melting point value corresponds to Cc1ccc(C(=O)N/N=C/c2cc(C(F)(F)F)cc(Cl)c2O)c(O)c1 ?
255 to 257 °C

Next:
Which measured melting point value corresponds to O=C(N/N=C/c1cc(Cl)cc(Cl)c1O)c1cccc(OC(F)(F)F)c1 ?
180 to 182 °C

Which measured melting point value corresponds to O=C(N/N=C/c1cc(Br)cc(F)c1O)c1ccccc1 ?
211 to 212 °C

Which measured melting point value corresponds to Cc1cccc(O)c1C(=O)N/N=C/c1cc(Cl)cc(Cl)c1O ?
217 to 219 °C

Which measured melting point value corresponds to O=C(N/N=C/c1c(O)cccc1Cl)c1ccc(Cl)cc1 ?
273 to 277 °C

* * *

test system: Leptosphaeria nodorum (LEPTNO); test: In vitro fungitoxicity of hydrazones with and without copper towards Leptosphaeria nodorum (Example 26); type: cell-based; conditions: Parastagonospora nodorum, 72 h, compound 0.05 μg/mL, copper-minus medium, 72 h at 25° C.; read-out: LEPTNO % Inhn. Minus Copper Observed
# key: entry, value: inhibition of growth at 0.05 µg/mL
// units = %; emit number, no label

Which measured inhibition of growth at 0.05 µg/mL value corresponds to COc1cccc(C(=O)N/N=C/c2cc(Cl)ccc2O)c1C [Example 133] ?
8.8

Next:
Which measured inhibition of growth at 0.05 µg/mL value corresponds to O=C(N/N=C/c1cc(Cl)cc(Cl)c1O)c1ccc(Cl)cc1 [Example 68] ?
15.8

Which measured inhibition of growth at 0.05 µg/mL value corresponds to O=C(N/N=C/c1ccccc1O)c1cccc(Cl)c1 [Example 175] ?
4.9

Which measured inhibition of growth at 0.05 µg/mL value corresponds to O=C(N/N=C/c1cc(Cl)cc(Cl)c1O)c1ccccc1 [Example 16] ?
0

Which measured inhibition of growth at 0.05 µg/mL value corresponds to O=C(N/N=C/c1ccccc1O)c1ccc(-c2ccccc2)cc1 [Example 183] ?
0

Which measured inhibition of growth at 0.05 µg/mL value corresponds to C/C(=N\NC(=O)c1cccc(Cl)c1)c1cc(Br)ccc1O [Example 292] ?
5

Which measured inhibition of growth at 0.05 µg/mL value corresponds to CNc1ccc(C(=O)N/N=C/c2cc(Cl)cc(Cl)c2O)cc1 [Example 259] ?
9.9

Which measured inhibition of growth at 0.05 µg/mL value corresponds to C/C(=N\NC(=O)c1ccccc1[N+](=O)[O-])c1cc(Cl)cc(Cl)c1O [Example 142] ?
1.1

Which measured inhibition of growth at 0.05 µg/mL value corresponds to O=C(N/N=C/c1cc(Br)cc(Br)c1O)c1ccccc1F [Example 116] ?
8.4

* * *

test system: Leptosphaeria nodorum (LEPTNO); assay: In vitro fungitoxicity of hydrazones with and without copper towards Leptosphaeria nodorum (Example 26); type: cell-based; settings: Parastagonospora nodorum, 72 h, compound 0.05 μg/mL, copper-minus medium, 72 h at 25° C.; read-out: LEPTNO % Inhn. Minus Copper Observed
reported-endpoint: inhibition of growth at 0.05 µg/mL

# count of solved cases: 3
Which measured inhibition of growth at 0.05 µg/mL value corresponds to C/C(=N\NC(=O)c1ccc(C(C)(C)C)cc1)c1ccccc1O ?
0%

Which measured inhibition of growth at 0.05 µg/mL value corresponds to COc1ccc(/C(C)=N/NC(=O)c2ccc(Cl)cc2)c(O)c1 ?
2.3%

Which measured inhibition of growth at 0.05 µg/mL value corresponds to O=C(N/N=C/c1cc(Cl)cc(Cl)c1O)c1ccc(Cl)cc1Cl ?
7.9%

Proceed to the following item.
Which measured inhibition of growth at 0.05 µg/mL value corresponds to O=C(N/N=C/c1cc(Br)cc(Br)c1O)c1cccc(Br)c1 ?
17%

* * *

# key: entry, value: TLB % Control
system: Phytophthora infestans; format: in vivo, Phytophthora infestans on tomato; conditions: hydrazone 50 ppm + 50 μM CuCl2.2H2O, applied 24 h before inoculation, assessed 7 days after inoculation, tomato
Could you write the number and then its unit?

# count of solved cases: 3
Which measured TLB % Control value corresponds to COc1ccc(Br)c(/C=N/NC(=O)c2ccccc2)c1O [Example 243] ?
86.4%

Which measured TLB % Control value corresponds to Cc1cc(C)cc(C(=O)N/N=C/c2ccccc2O)c1 [Example 167] ?
67.3%

Which measured TLB % Control value corresponds to C/C(=N\NC(=O)c1ccc(Cl)cc1)c1cc(Cl)cc(Cl)c1O [Example 136] ?
95.0%

Next:
Which measured TLB % Control value corresponds to C/C(=N\NC(=O)c1ccccc1[N+](=O)[O-])c1cc(Cl)cc(Cl)c1O [Example 142] ?
79.0%

Which measured TLB % Control value corresponds to CCOc1ccc(C(=O)N/N=C(\C)c2ccccc2O)cc1 [Example 18] ?
38.6%

* * *

reported-endpoint: melting point

# count of solved cases: 5
Which measured melting point value corresponds to Cc1ccc(O)c(/C=N/NC(=O)c2ccccc2)c1 ?
192 to 193 °C

Which measured melting point value corresponds to N#Cc1cc(F)c(O)c(/C=N/NC(=O)c2ccccc2)c1 ?
262 to 263 °C

Which measured melting point value corresponds to Cc1ccc(C(=O)N/N=C/c2cccc(Cl)c2O)c(O)c1 ?
258 to 266 °C

Which measured melting point value corresponds to COc1ccc(C(=O)N/N=C(\C)c2cccc(Cl)c2O)cc1 ?
203 to 204 °C

Which measured melting point value corresponds to C/C(=N\NC(=O)c1ccc(Cl)cc1)c1cc(Br)cc(Br)c1O ?
255 to 258 °C

Next:
Which measured melting point value corresponds to Cc1cc(C)cc(C(=O)N/N=C/c2cc(Cl)cc(Br)c2O)c1 ?
223 to 226 °C

Which measured melting point value corresponds to O=C(N/N=C/c1ccc(Cl)c(Cl)c1O)c1ccccc1C(F)(F)F ?
209 to 213 °C

Which measured melting point value corresponds to COc1cccc(/C(C)=N/NC(=O)c2cccc(Cl)c2)c1O ?
146 to 148 °C

Which measured melting point value corresponds to Cc1ccc(C(=O)N/N=C/c2cc(Cl)cc(Br)c2O)c(O)c1 ?
262 to 268 °C

* * *

# key: entry, value: melting point

# count of solved cases: 5
Which measured melting point value corresponds to O=C(N/N=C/c1cccc(Cl)c1O)c1ccc([N+](=O)[O-])cc1 ?
284 to 287 °C

Which measured melting point value corresponds to COc1cccc(/C(C)=N/NC(=O)c2ccccc2O)c1O ?
255 to 257 °C

Which measured melting point value corresponds to O=C(N/N=C/c1cc(Cl)cc(Br)c1O)c1ccc(F)cc1 ?
200 to 211 °C

Which measured melting point value corresponds to Cc1ccc(C(=O)N/N=C/c2cc(C(F)(F)F)cc(C(F)(F)F)c2O)cc1 ?
274 to 277 °C

Which measured melting point value corresponds to O=C(N/N=C/c1cc(Cl)ccc1O)c1cccc(F)c1 ?
205 to 224 °C

Next:
Which measured melting point value corresponds to C/C(=N\NC(=O)c1ccccc1C)c1cc(Cl)ccc1O ?
192 to 193 °C

Which measured melting point value corresponds to CSc1cc(Br)c(O)c(/C=N/NC(=O)c2ccccc2)c1 ?
207 to 209 °C

Which measured melting point value corresponds to C/C(=N\NC(=O)c1ccccc1O)c1cc(Br)ccc1O ?
281 to 303 °C

Which measured melting point value corresponds to C/C(=N\NC(=O)c1ccccc1O)c1cccc(Cl)c1O ?
283 to 287 °C

Which measured melting point value corresponds to O=C(N/N=C/c1cccc(Cl)c1O)c1cccc([N+](=O)[O-])c1 ?
236 to 239 °C

Which measured melting point value corresponds to C/C(=N\NC(=O)c1ccc(C(F)(F)F)cc1)c1cc(Cl)ccc1O ?
271 to 273 °C

Which measured melting point value corresponds to O=C(N/N=C/c1cc(Cl)cc(Cl)c1O)c1c(Cl)cccc1Cl ?
250 to 252 °C

Which measured melting point value corresponds to O=C(N/N=C/c1c(Cl)ccc(Cl)c1O)c1cccc(F)c1 ?
203 to 209 °C

Which measured melting point value corresponds to O=C(N/N=C/c1cc(Br)cc(F)c1O)c1ccccc1O ?
297 to 299 °C

Which measured melting point value corresponds to C/C(=N\NC(=O)c1cccc(Br)c1)c1cc(Cl)cc(Cl)c1O ?
247 to 253 °C

Which measured melting point value corresponds to C/C(=N\NC(=O)c1ccccc1Br)c1cccc(Cl)c1O ?
178 to 183 °C

Which measured melting point value corresponds to C/C(=N\NC(=O)c1cccc(C)c1)c1cccc(Cl)c1O ?
164 to 178 °C
